run.description: Selectivity index, ratio of IC50 for cytotoxicity against human HaCaT cells to IC50 for cytotoxicity against human A549 cells
Type: toxicity, cell-based
experimental.context: HaCaT cells versus A549 cells, read-out: Ratio IC50
readout.label: selectivity ratio

[[record]]
smiles_record = "CC[C@@H](C(=O)[C@@H](C)[C@@H](O)[C@H](C)[C@@H]1O[C@@H]([C@@H](CC)C(=O)OCCCC[P+](c2ccc(OC)cc2)(c2ccc(OC)cc2)c2ccc(OC)cc2)CC[C@@H]1C)[C@H]1O[C@]2(C=C[C@@H](O)[C@]3(CC[C@@](C)([C@H]4CC[C@](O)(CC)[C@H](C)O4)O3)O2)[C@H](C)C[C@@H]1C.[Br-]"
measured_result = 1.7

[[record]]
smiles_record = "CC[C@@H](C(=O)[C@@H](C)[C@@H](O)[C@H](C)[C@@H]1O[C@@H]([C@@H](CC)C(=O)OCCCCCC[P+](c2ccccc2)(c2ccccc2)c2ccc(N(C)C)cc2)CC[C@@H]1C)[C@H]1O[C@]2(C=C[C@@H](O)[C@]3(CC[C@@](C)([C@H]4CC[C@](O)(CC)[C@H](C)O4)O3)O2)[C@H](C)C[C@@H]1C.[Br-]"
measured_result = 0.8

[[record]]
smiles_record = "CC[C@@H](C(=O)[C@@H](C)[C@@H](O)[C@H](C)[C@@H]1O[C@@H]([C@@H](CC)C(=O)OCCCCCC[P+](c2ccc(C)cc2)(c2ccc(C)cc2)c2ccc(C)cc2)CC[C@@H]1C)[C@H]1O[C@]2(C=C[C@@H](O)[C@]3(CC[C@@](C)([C@H]4CC[C@](O)(CC)[C@H](C)O4)O3)O2)[C@H](C)C[C@@H]1C.[Br-]"
measured_result = 1.1

[[record]]
smiles_record = "CCCC[P+](CCCC)(CCCC)CCCCOC(=O)[C@H](CC)[C@H]1CC[C@H](C)[C@H]([C@@H](C)[C@H](O)[C@H](C)C(=O)[C@H](CC)[C@H]2O[C@]3(C=C[C@@H](O)[C@]4(CC[C@@](C)([C@H]5CC[C@](O)(CC)[C@H](C)O5)O4)O3)[C@H](C)C[C@@H]2C)O1.[Br-]"
measured_result = 0.8

[[record]]
smiles_record = "CCCC[P+](CCCC)(CCCC)CCCCCCOC(=O)[C@H](CC)[C@H]1CC[C@H](C)[C@H]([C@@H](C)[C@H](O)[C@H](C)C(=O)[C@H](CC)[C@H]2O[C@]3(C=C[C@@H](O)[C@]4(CC[C@@](C)([C@H]5CC[C@](O)(CC)[C@H](C)O5)O4)O3)[C@H](C)C[C@@H]2C)O1.[Br-]"
measured_result = 0.6

[[record]]
smiles_record = "CC[C@@H](C(=O)[C@@H](C)[C@@H](O)[C@H](C)[C@@H]1O[C@@H]([C@@H](CC)C(=O)O)CC[C@@H]1C)[C@H]1O[C@]2(C=C[C@@H](O)[C@]3(CC[C@@](C)([C@H]4CC[C@](O)(CC)[C@H](C)O4)O3)O2)[C@H](C)C[C@@H]1C"
measured_result = 0.4

[[record]]
smiles_record = "CC[C@@H](C(=O)[C@@H](C)[C@@H](O)[C@H](C)[C@@H]1O[C@@H]([C@@H](CC)C(=O)OCCCC[P+](c2ccccc2)(c2ccccc2)c2ccc(N(C)C)cc2)CC[C@@H]1C)[C@H]1O[C@]2(C=C[C@@H](O)[C@]3(CC[C@@](C)([C@H]4CC[C@](O)(CC)[C@H](C)O4)O3)O2)[C@H](C)C[C@@H]1C.[Br-]"
measured_result = 1.7

[[record]]
smiles_record = "CC[C@@H](C(=O)[C@@H](C)[C@@H](O)[C@H](C)[C@@H]1O[C@@H]([C@@H](CC)C(=O)OCc2ccccc2)CC[C@@H]1C)[C@H]1O[C@]2(C=C[C@@H](O)[C@]3(CC[C@@](C)([C@H]4CC[C@](O)(CC)[C@H](C)O4)O3)O2)[C@H](C)C[C@@H]1C"
measured_result = 1.1

[[record]]
smiles_record = "CC[C@@H](C(=O)[C@@H](C)[C@@H](O)[C@H](C)[C@@H]1O[C@@H]([C@@H](CC)C(=O)OCCCCCC[P+](c2ccc(OC)cc2)(c2ccc(OC)cc2)c2ccc(OC)cc2)CC[C@@H]1C)[C@H]1O[C@]2(C=C[C@@H](O)[C@]3(CC[C@@](C)([C@H]4CC[C@](O)(CC)[C@H](C)O4)O3)O2)[C@H](C)C[C@@H]1C.[Br-]"
measured_result = 0.7

[[record]]
smiles_record = "CC[C@@H](C(=O)[C@@H](C)[C@@H](O)[C@H](C)[C@@H]1O[C@@H]([C@@H](CC)C(=O)OCCCC[P+](c2ccc(C)cc2)(c2ccc(C)cc2)c2ccc(C)cc2)CC[C@@H]1C)[C@H]1O[C@]2(C=C[C@@H](O)[C@]3(CC[C@@](C)([C@H]4CC[C@](O)(CC)[C@H](C)O4)O3)O2)[C@H](C)C[C@@H]1C.[Br-]"
measured_result = 1.3

[[record]]
smiles_record = "CC[C@@H](C(=O)[C@@H](C)[C@@H](O)[C@H](C)[C@@H]1O[C@@H]([C@@H](CC)C(=O)OCCCC[P+](c2ccccc2)(c2ccccc2)c2ccccc2)CC[C@@H]1C)[C@H]1O[C@]2(C=C[C@@H](O)[C@]3(CC[C@@](C)([C@H]4CC[C@](O)(CC)[C@H](C)O4)O3)O2)[C@H](C)C[C@@H]1C.[Br-]"
measured_result = 1.8

[[record]]
smiles_record = "CC[C@@H](C(=O)[C@@H](C)[C@@H](O)[C@H](C)[C@@H]1O[C@@H]([C@@H](CC)C(=O)OCCCCCC[P+](c2ccccc2)(c2ccccc2)c2ccccc2)CC[C@@H]1C)[C@H]1O[C@]2(C=C[C@@H](O)[C@]3(CC[C@@](C)([C@H]4CC[C@](O)(CC)[C@H](C)O4)O3)O2)[C@H](C)C[C@@H]1C.[Br-]"
measured_result = 1.1

[[record]]
smiles_record = "CC[C@@H](C(=O)[C@@H](C)[C@@H](O)[C@H](C)[C@@H]1O[C@@H]([C@@H](CC)C(=O)OCCCC[P+](c2ccccc2OC)(c2ccccc2OC)c2ccccc2OC)CC[C@@H]1C)[C@H]1O[C@]2(C=C[C@@H](O)[C@]3(CC[C@@](C)([C@H]4CC[C@](O)(CC)[C@H](C)O4)O3)O2)[C@H](C)C[C@@H]1C.[Br-]"
measured_result = 1.3

